- assay-name: qHTS for inhibitors of Vif-A3G interactions: Cherry picks; further: nearly all actives have a fitted effect of over 80% in size
- assay-context: HeLa A3G-eYFP + Vif (tagged APOBEC3G with the HIV-1 protein that degrades it), 24 h; eYFP fluorescence increase; series mostly up to 36.9 µM
In all, about 2,100 compounds went through this assay and about 650 (31%) were called active. Another 16% or so got no clear call; they are omitted. The call rests on the fitted dose curve; in most records, active means well fitted inhibition curve with a large enough effect; inconclusive means small, poorly fitted or top-dose-only effect; inactive means flat fitted curve, though single readings scatter. The list shows a part of the results.
Reply using exactly one outcome from active, inactive

Worked examples, 5 compounds total:
• Cc1[nH][nH]c(=O)c1C(c1c(C)[nH][nH]c1=O)c1cn(Cc2ccccc2Cl)c2ccccc12 = inactive
• C[C@H](O)[C@@H]1CN2CCc3c([nH]c4ccccc34)[C@@H]2C[C@@H]1N(C)C(=O)c1ccco1 = inactive
• O=C(c1cc([N+](=O)[O-])ccc1N1CCCCC1)N1CCc2ccccc21 = inactive
• CC1Sc2ccc(C(=O)NCc3ccccn3)cc2NC1=O (centres undefined) = inactive
• CCOC(=O)/C(C#N)=C\C=C1C=CN(C)C=C1 = active

## Task Record request — test call for COc1ccc(NC(=O)C(NC(=O)/C=C\c2ccc3c(c2)OCO3)c2ccccc2)cc1 (centres undefined)
## Result inactive

## Task What do you get for Cc1cc(C)c(S(=O)(=O)Oc2ccccc2[N+](=O)[O-])c(C)c1 ?
## Result inactive

## Task What do you get for COc1cc(CCC(=O)Nc2nnc(C)s2)cc(OC)c1OC ?
## Result inactive

## Task What do you get for Nc1nc2n[nH]nc2c(=O)[nH]1 ?
## Result inactive
